We begin with a simple list: items and their reported degree of damage to the plants, Alopecurus.
test system: Alopecurus; assay: Post-emergence test/greenhouse; format: in vivo; details: application rate 30 g of ai./ha, rated after three weeks vs untreated control
experimental.endpoint: degree of damage to the plants, Alopecurus (%)

> print(dat)
                                    compound  obs.value
 1  C#CCOc1cccc(C)c1S(=O)(=O)NC(=O)Nc1nc(OC)cc(OC)n1         60
 2  CCOc1cccc(C(F)(F)F)c1S(=O)(=O)NC(=O)Nc1nc(C)nc(OC)n1         90
 3  CCOc1cccc(C(F)(F)F)c1S(=O)(=O)NC(=O)Nc1nc(Cl)cc(OC)n1         70
 4  COc1nc(C)nc(NC(=O)NS(=O)(=O)c2c(C)cccc2OC)n1        100
 5  CCOc1cccc(C(F)(F)F)c1S(=O)(=O)NC(=O)Nc1nc(OC)cc(OC)n1         60
 6  COc1nc(NC(=O)NS(=O)(=O)c2c(C)cccc2OC(C)C)nc(OC)n1 [Example 38]         60
 7  CCOc1cccc(C(F)(F)F)c1S(=O)(=O)NC(=O)Nc1nc(C)cc(C)n1         80
 8  COc1cc(OC)nc(NC(=O)NS(=O)(=O)c2c(OC(C)C)cccc2C(F)(F)F)n1         60
 9  COc1cc(OC)nc(NC(=O)NS(=O)(=O)c2c(OC)cccc2C(F)(F)F)n1         60
10  COc1nc(NC(=O)NS(=O)(=O)c2c(OC)cccc2C(F)(F)F)nc(OC)n1         60
11  COc1cccc(C)c1S(=O)(=O)NC(=O)Nc1nc(C)cc(C)n1         60
12  COc1cc(OC)nc(NC(=O)NS(=O)(=O)c2c(C)cccc2OC)n1         60
13  CCOc1cccc(C(F)(F)F)c1S(=O)(=O)NC(=O)Nc1nc(OC)nc(OC)n1         95
14  COc1nc(C)nc(NC(=O)NS(=O)(=O)c2c(OC(C)C)cccc2C(F)(F)F)n1         95
15  COc1cc(C)nc(NC(=O)NS(=O)(=O)c2c(C)cccc2OC)n1         60
16  COc1nc(NC(=O)NS(=O)(=O)c2c(C)cccc2OC(C)C)nc(OC)n1 [Example 39]         90
17  COc1nc(NC(=O)NS(=O)(=O)c2c(C)cccc2OC)nc(OC)n1         90
18  COc1nc(C)nc(NC(=O)NS(=O)(=O)c2c(OC)cccc2C(F)(F)F)n1         80
19  CCCOc1cccc(C)c1S(=O)(=O)NC(=O)Nc1nc(C)nc(OC)n1         90
20  CCCOc1cccc(C(F)(F)F)c1S(=O)(=O)NC(=O)Nc1nc(OC)cc(OC)n1         60

----------
We begin with a simple list: items and their reported Steltaria, % damage.
Tested on: Stellaria
Assay: Pre-emergence test/greenhouse
Type: in vivo
Details: 60 g of ai./ha, after three weeks
Experimental: To produce a suitable preparation of active compound, 1 part by weight of active compound is mixed with the stated amount of solvent, the stated amount of emulsifier is added and the concentrate is diluted with water to the desired concentration. Seeds of the test plants are sown in normal soil. After about 24 hours, the soil is sprayed with the preparation of the active compound. Advantageously, the amount of water per unit area is kept constant. […]
experimental.endpoint: Steltaria, % damage (%)

> print(dat)
                                    compound  obs.value
 1  CCOc1cccc(C)c1S(=O)(=O)NC(=O)Nc1nc(OC)nc(OC)n1         95
 2  CCOc1cccc(C(F)(F)F)c1S(=O)(=O)NC(=O)Nc1nc(OC)nc(OC)n1         95
 3  CCCOc1cccc(C)c1S(=O)(=O)NC(=O)Nc1nc(OC)nc(OC)n1        100
 4  COc1cc(Cl)nc(NC(=O)NS(=O)(=O)c2c(OC)cccc2C(F)(F)F)n1         95
 5  CCCOc1cccc(C(F)(F)F)c1S(=O)(=O)NC(=O)Nc1nc(OC)nc(OC)n1        100
 6  COc1nc(C)nc(NC(=O)NS(=O)(=O)c2c(OC)cccc2C(F)(F)F)n1        100
 7  CCOc1cccc(C)c1S(=O)(=O)NC(=O)Nc1nc(OC)cc(OC)n1         95
 8  CCOc1cccc(C)c1S(=O)(=O)NC(=O)Nc1nc(C)nc(OC)n1        100
 9  CCOc1cccc(C)c1S(=O)(=O)NC(=O)Nc1nc(C)cc(OC)n1        100
10  COc1nc(C)nc(NC(=O)NS(=O)(=O)c2c(C)cccc2OC2CCCC2)n1        100
11  COc1cccc(C(F)(F)F)c1S(=O)(=O)NC(=O)Nc1nc(C)cc(C)n1        100
12  COc1nc(NC(=O)NS(=O)(=O)c2c(OC)cccc2C(F)(F)F)nc(OC)n1        100
13  COc1nc(C)nc(NC(=O)NS(=O)(=O)c2c(C)cccc2OC(F)F)n1         95
14  CCCOc1cccc(C(F)(F)F)c1S(=O)(=O)NC(=O)Nc1nc(C)cc(C)n1         95
15  CCCOc1cccc(C)c1S(=O)(=O)NC(=O)Nc1nc(C)cc(OC)n1         80
16  COc1nc(NC(=O)NS(=O)(=O)c2c(OC(C)C)cccc2C(F)(F)F)nc(OC)n1        100
17  CCOc1cccc(C(F)(F)F)c1S(=O)(=O)NC(=O)Nc1nc(C)nc(OC)n1         95
